src = paper PMC10641814

- protocol text: Preliminary pharmacokinetics in male Wistar rats, plasma and brain
- Type: in vivo
- experimental context: male, Wistar, po; rat, 3 mg/kg intragastric, plasma
property: Cmax (ng/mL)

Cl.Clc1cccc(Cn2ccc3c(N4CCNCC4)nc4ccccc4c32)c1: 38.6

* * *

- protocol text: Preliminary pharmacokinetics in male Wistar rats, plasma and brain
- Assay type: in vivo
- experimental context: male, Wistar, po; rat, 3 mg/kg intragastric, brain; read-out: MRT mean residence time (converted)
property: MRT (h)

Cl.Clc1cccc(Cn2ccc3c(N4CCNCC4)nc4ccccc4c32)c1: 4.58

* * *

- measured on: h5-HT6R (Homo sapiens)
- protocol text: 5-HT6R antagonist activity at Gs signaling, cAMP in 1321N1 cells (5-CT stimulated)
- experimental context: 1321N1 cells expressing h5-HT6R; read-out: EC50 (agonist, cAMP production)
pEC50: −log10 of the molar value.
property: pEC50

NCCc1c[nH]c2ccc(C(N)=O)cc12: 7.89

* * *

- protocol text: Solubility in water
property: solubility (mg/mL)

Cl.Clc1cccc(Cn2ccc3c(N4CCNCC4)nc4ccccc4c32)c1 [PZ-1922]: 325

* * *

- measured on: h5-HT6R (Homo sapiens, UniProt P50406)
- Construct: expressed in transfected cells
- Sequence (P50406 whole entry): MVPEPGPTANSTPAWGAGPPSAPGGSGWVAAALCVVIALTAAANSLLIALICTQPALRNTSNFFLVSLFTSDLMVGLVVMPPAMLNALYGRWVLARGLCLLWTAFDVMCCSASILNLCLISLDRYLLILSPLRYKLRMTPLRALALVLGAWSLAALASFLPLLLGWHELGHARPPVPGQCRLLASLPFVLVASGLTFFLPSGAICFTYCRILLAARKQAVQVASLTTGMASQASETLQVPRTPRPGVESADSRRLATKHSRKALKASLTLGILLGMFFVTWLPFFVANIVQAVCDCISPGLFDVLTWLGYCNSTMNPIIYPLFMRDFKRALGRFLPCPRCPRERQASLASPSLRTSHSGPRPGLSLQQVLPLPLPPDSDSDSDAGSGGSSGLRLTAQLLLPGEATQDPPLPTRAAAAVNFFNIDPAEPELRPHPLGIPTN
- protocol text: 5-HT6R radioligand binding ([3H]-LSD) in HEK293 cells stably expressing h5-HT6R
- experimental context: 2 nM [3H]-LSD, mean of three independent experiments, read-out: Ki ± SEM [nM] 5-HT6R
Consider the cut-off 1000 nM. If the recorded Ki is strictly smaller, the label is Criterion met; if not, the label is Criterion not met.

Cl.Clc1cccc(CNc2ccnc(N3CCNCC3)c2)c1 [Compound 26]: Criterion not met
Cl.Clc1cccc(Cn2ccc3c(NC[C@H]4CCNC4)nc4ccccc4c32)c1 [Compound 11]: Criterion met
Cl.Clc1cccc(Cn2ccc3c(N4C[C@H]5C[C@@H]4CN5)nc4ccccc4c32)c1 [Compound 18]: Criterion met
Cl.Fc1cccc(Cn2ccc3c(N[C@H]4CCNC4)nc4ccccc4c32)c1 [Compound 4]: Criterion met
CN(C)C1CCN(c2nc3ccccc3c3c2ccn3Cc2cccc(Cl)c2)C1.Cl (centres unmarked) [Compound 13]: Criterion not met

* * *

- measured on: hMAO-B (Homo sapiens)
- Construct: purchased Sigma-Aldrich M7441
- Sequence (P27338 whole entry): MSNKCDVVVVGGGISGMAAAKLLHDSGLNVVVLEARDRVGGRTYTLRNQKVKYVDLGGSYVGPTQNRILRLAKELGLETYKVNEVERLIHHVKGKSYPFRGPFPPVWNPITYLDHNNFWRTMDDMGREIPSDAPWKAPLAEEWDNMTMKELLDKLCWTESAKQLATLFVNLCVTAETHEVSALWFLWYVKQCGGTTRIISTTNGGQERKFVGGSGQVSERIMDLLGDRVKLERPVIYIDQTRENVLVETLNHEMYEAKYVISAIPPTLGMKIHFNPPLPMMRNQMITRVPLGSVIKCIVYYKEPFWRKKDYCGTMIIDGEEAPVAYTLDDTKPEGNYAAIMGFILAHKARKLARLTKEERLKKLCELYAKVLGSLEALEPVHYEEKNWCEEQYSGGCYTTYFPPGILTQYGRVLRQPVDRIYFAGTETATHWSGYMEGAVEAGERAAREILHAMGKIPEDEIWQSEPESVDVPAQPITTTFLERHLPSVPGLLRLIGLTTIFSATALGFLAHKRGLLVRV
- protocol text: MAO-B inhibition, fluorometric method, p-tyramine substrate
- Format: biochemical
- experimental context: two experiments in duplicate
// pIC50 ± SEM (MAO-B) lookup, one value per entry
property: pIC50 ± SEM (MAO-B)

Cl.Clc1cccc(Cn2ccc3c(NC[C@@H]4CCCN4)nc4ccccc4c32)c1: 6.52 ± 0.04
Cl.Fc1cccc(Cn2ccc3c(N[C@H]4CCNC4)nc4ccccc4c32)c1: 6.16 ± 0.05
COc1cccc(Cn2ccc3c(N[C@H]4CCNC4)nc4ccccc4c32)c1.Cl: 6.86 ± 0.07
Cl.Clc1cccc(Cn2ccc3c(N4C[C@H]5C[C@@H]4CN5)nc4ccccc4c32)c1: 6.73 ± 0.02
Cl.Clc1cccc(Cn2ccc3c(N4CCCNCC4)nc4ccccc4c32)c1: 7.69 ± 0.12
Cl.Clc1cccc(Cn2ccc3c(N[C@@H]4CCNC4)nc4ccccc4c32)c1: 6.83 ± 0.01
Cl.NC[C@@H]1CCN(c2nc3ccccc3c3c2ccn3Cc2cccc(Cl)c2)C1: 8.00 ± 0.00
Cl.c1ccc(Cn2ccc3c(N[C@H]4CCNC4)nc4ccccc4c32)cc1: 6.57 ± 0.03
Cl.Clc1cccc(Cn2ccc3c(NC[C@@H]4CCNC4)nc4ccccc4c32)c1: 6.52 ± 0.04
Cl.Clc1cccc(Cn2ccc3c(N[C@H]4CCNC4)nc4ccccc4c32)c1: 6.92 ± 0.04
Cl.Clc1cccc(Cn2ccc3c(C4=CCNCC4)nc4ccccc4c32)c1: 6.67 ± 0.04
Cl.Clc1cccc(Cn2ccc3c(C4CCNCC4)nc4ccccc4c32)c1: 6.13 ± 0.06
Cl.Clc1cccc(Cn2ccc3c(N4CC5(CCNC5)C4)nc4ccccc4c32)c1: 7.01 ± 0.11
CNC1CN(c2nc3ccccc3c3c2ccn3Cc2cccc(Cl)c2)C1.Cl: 8.22 ± 0.14
Brc1cccc(Cn2ccc3c(N[C@H]4CCNC4)nc4ccccc4c32)c1.Cl: 6.89 ± 0.12
Cl.Clc1cccc(CNc2cc(N3CCNCC3)nc3ccccc23)c1: 5.36 ± 0.03
Cl.Clc1cccc(CNc2ccnc(N3CCNCC3)c2)c1: 5.18 ± 0.04
Cl.Clc1cccc(Cn2ccc3c(NC[C@H]4CCNC4)nc4ccccc4c32)c1: 8.02 ± 0.12
CN(C)C1CCN(c2nc3ccccc3c3c2ccn3Cc2cccc(Cl)c2)C1.Cl (centres unmarked): 7.43 ± 0.04
CN(C)C1CCN(c2nc3ccccc3c3c2ccn3Cc2cccc(Cl)c2)CC1.Cl: 5.60 ± 0.02
Cl.Clc1cccc(Cn2ccc3c(N4CC5(CNC5)C4)nc4ccccc4c32)c1: 6.97 ± 0.05
Cl.Clc1cccc(Cn2ccc3c(CN4CCNCC4)nc4ccccc4c32)c1: 5.21 ± 0.02
Cl.Clc1cccc(Cn2ccc3c(NC[C@H]4CCCN4)nc4ccccc4c32)c1: 5.70 ± 0.04
